target: Acetylcholinesterase (Bos taurus)
Sequence (P23795 whole entry): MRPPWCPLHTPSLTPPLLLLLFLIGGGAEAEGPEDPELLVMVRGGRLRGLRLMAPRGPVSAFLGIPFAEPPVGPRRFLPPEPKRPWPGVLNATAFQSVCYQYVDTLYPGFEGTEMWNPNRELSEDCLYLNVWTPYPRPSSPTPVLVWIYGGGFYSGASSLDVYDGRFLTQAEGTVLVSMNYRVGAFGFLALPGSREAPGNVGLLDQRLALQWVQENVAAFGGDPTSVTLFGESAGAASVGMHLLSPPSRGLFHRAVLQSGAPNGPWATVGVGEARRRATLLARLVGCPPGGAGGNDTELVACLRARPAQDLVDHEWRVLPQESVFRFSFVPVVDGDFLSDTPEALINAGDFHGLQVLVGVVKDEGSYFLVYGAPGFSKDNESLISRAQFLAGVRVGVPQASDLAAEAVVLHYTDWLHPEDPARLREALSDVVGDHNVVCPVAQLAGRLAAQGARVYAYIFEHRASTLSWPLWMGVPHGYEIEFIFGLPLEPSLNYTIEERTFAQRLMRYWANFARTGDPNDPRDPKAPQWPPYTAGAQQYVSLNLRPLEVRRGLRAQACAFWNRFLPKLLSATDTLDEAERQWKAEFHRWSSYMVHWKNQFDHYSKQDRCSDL
pIC50: −log10 of the molar value.
Measurement kind: pIC50

- Molecule: "CC1=CC2Cc3nc4cc(Cl)ccc4c(N)c3C(C1)C2NS(C)(=O)=O (racemic; form 2)"
  Measurement kind: "pIC50"
  Endpoint value: 5.61
- Molecule: "CC1=CC2Cc3nc4cc(Cl)ccc4c(N)c3C(C1)C2N (racemic; form 2)"
  Measurement kind: "pIC50"
  Endpoint value: 6.32
- Molecule: "CC(=O)NC1C2C=C(C)CC1c1c(nc3cc(Cl)ccc3c1N)C2 (racemic; form 2)"
  Measurement kind: "pIC50"
  Endpoint value: 5.87
- Molecule: "CC12CC3Cc4nc5cc(Cl)ccc5c(N)c4C(C1)C3N2 (racemic)"
  Measurement kind: "pIC50"
  Endpoint value: 5.36
- Molecule: "CC12CC3Cc4nc5cc(Cl)ccc5c(N)c4C(C1)C3N2S(C)(=O)=O (racemic)"
  Measurement kind: "pIC50"
  Endpoint value: 6.52
- Molecule: "CC(=O)NC1C2C=C(C)CC1c1c(nc3cc(Cl)ccc3c1N)C2 (racemic; form 1)"
  Measurement kind: "pIC50"
  Endpoint value: 5.86
- Molecule: "CC1=CC2Cc3nc4cc(Cl)ccc4c(N)c3C(C1)C2N (racemic; form 1)"
  Measurement kind: "pIC50"
  Endpoint value: 6.35
- Molecule: "CC1=CC2Cc3nc4cc(Cl)ccc4c(N)c3C(C1)C2NS(C)(=O)=O (racemic; form 1)"
  Measurement kind: "pIC50"
  Endpoint value: 7.41
